Published IC50 for Platelet-derived growth factor receptor beta (Homo sapiens), assembled from different documents, is shown next.

The cases that follow already have their IC50 on record.
CN(C(=O)Nc1ccc(Cl)c(C(F)(F)F)c1)c1ccc(Oc2ccnc(-c3cnn(C)c3)c2)cc1; ≤ 10000 nM
CCn1cc2ncc(N[C@@H](C)c3cccc(NC(=O)c4cnc(C)s4)c3)nc2n1; 300 to 1000 nM
CCn1cc2ncc(N[C@@H](C)c3cc(NC(=O)Cc4ccc(C5CCC5)nc4)ccc3F)nc2n1; ≥ 1000 nM
COC(=O)Cn1ccc(-c2cc(Oc3cccc(NC(=O)Nc4ccc(Cl)c(C(F)(F)F)c4)c3)ncn2)n1; ≤ 10000 nM
Cc1ccc(C(=O)N[C@H]2CCCC[C@@H]2O)cc1NC(=O)c1cnc(NCC(C)(C)C)s1; 130 nM
CCn1cc2ncc(N[C@@H](C)c3cccc(NC(=O)c4ccc(C(F)(F)F)c(C)c4)c3)nc2n1; < 300 nM

What measured IC50 is associated with `COC(=O)c1ccc(C(=O)Nc2cccc([C@H](C)Nc3cnc4cnn(C)c4n3)c2)cn1` on Platelet-derived growth factor receptor beta (Homo sapiens)?
≥ 1000 nM

What measured IC50 is associated with `O=C(Nc1ccc(Oc2cc(-n3cncn3)ncn2)cc1)Nc1ccc(Cl)c(C(F)(F)F)c1` on Platelet-derived growth factor receptor beta (Homo sapiens)?
≤ 10000 nM

----------
pIC50: −log10 of the molar value.
Published pIC50 for UniProtKB P09619, assembled from different documents, is shown next.

The cases that follow already have their pIC50 on record.
Cc1nc(NC(=O)N2CCC3(CCC(F)(F)CC3)C2=O)ccc1Oc1ccnc(-c2cnn(C)c2)c1; < 5.00
CCOc1ncc(C(=O)Nc2ccc(F)c([C@H](C)Nc3cnc4cn(CC)nc4n3)c2)cc1C; > 6.52
CCn1cc2ncc(N[C@@H](C)c3cc(NC(=O)c4ccc(OC(F)(F)F)nc4)ccc3F)nc2n1; > 6.52
Cc1ccc(C(=O)N[C@H]2CCCC[C@@H]2O)cc1NCc1cncc(-c2ncc(F)cn2)c1; 6.72

What measured pIC50 is associated with `Cc1cncc(C(=O)Nc2cccc([C@H](C)Nc3cnc4[nH]cc(-c5cnn(C)c5)c4n3)c2)c1` on UniProtKB P09619?
> 6.52

What measured pIC50 is associated with `CCN(CC)CCN(C)C(=O)c1ccc(/C=C2\C(=O)Nc3cc(-c4ccccc4)ccc32)[nH]1` on UniProtKB P09619?
< 4.00

What measured pIC50 is associated with `CCN(CC)CCN(C)C(=O)c1ccc(/C=C2\C(=O)Nc3ccc(Br)cc32)[nH]1` on UniProtKB P09619?
< 4.00

What measured pIC50 is associated with `CCn1cc2ncc(N[C@@H](C)c3cccc(NC(=O)c4cnc(Cl)c(C)c4)c3)nc2n1` on UniProtKB P09619?
> 6.52

What measured pIC50 is associated with `CCn1cc2ncc(N[C@@H](C)c3cccc(NC(=O)c4cncc(C)c4)c3)cc2n1` on UniProtKB P09619?
> 6.52

What measured pIC50 is associated with `CCN(CC)CCCNC(=O)c1[nH]c(/C=C2\C(=O)Nc3ccc(Br)cc32)c(C(=O)c2ccccc2)c1C` on UniProtKB P09619?
< 4.00

----------
Published IC50 for Platelet-derived growth factor receptor beta (Homo sapiens, UniProt P09619), assembled from different documents, is shown next.

The cases that follow already have their IC50 on record.
Cn1cc(-c2cc(Oc3cccc(NC(=O)c4cccc5c4OC(F)(F)O5)c3)ccn2)cn1; > 10000 nM
CCn1cc2ncc(N[C@@H](C)c3cccc(NC(=O)c4ccc(N5CCOCC5)c(F)c4)c3)nc2n1; < 300 nM

What value of measured IC50 is listed for `Cc1ccc(C(=O)N[C@H]2CCCC[C@@H]2O)cc1C#Cc1cncc(C2CC2)c1` ?
43 nM
